System: MALME-3M melanoma
Experiment: NCI-60 one-dose screen, 48 h
Conditions: 10 µM unless noted
The panel holds about 83,000 compounds, 20% with a hit somewhere; the sample as a whole holds those more often. Active and inactive are the calls of the source. Rule for the calls: active = growth percent below 10; inactive = the rest.
Assign a class; possible classes are active, inactive

Task: Given Cn1cc(-c2noc(-c3cn(C)c4ncc(F)cc34)n2)c2cc(Br)ccc21 , state the outcome it received in this test.
Output: inactive

Task: Next entry: COc1ccc(/C=C2\N=C(Nc3ccccc3)N(NC(=O)c3ccccn3)C2=O)cc1
Output: inactive

Task: How about this molecule: Oc1c(CNCCNCc2cc(Cl)cc(Cc3ccccc3)c2O)cc(Cl)cc1Cc1ccccc1
Output: active

Task: Please do the same for CCc1ccc(-c2ccc(COc3ccc(CC4SC(=O)NC4=O)cc3)cc2)cc1 (stereo not drawn) as well.
Output: inactive

Task: Could you do the same for Fc1cc2[nH]ncc2c2c3c(c(-c4cn[nH]c4C(F)(F)F)nc12)C1CCC3C1 (stereo not drawn) , please?
Output: active

Task: Follow-up item: COc1ccc(OC)c([N+](=O)[O-])c1C(=O)CNC(C)=O
Output: inactive

Task: Next up: CC1(C)CC[C@]2(C(N)=O)CC[C@]3(C)C(=CC[C@@H]4[C@@]5(C)C/C(=C/c6ccncc6)C(=O)C(C)(C)[C@@H]5CC[C@]43C)[C@@H]2C1
Output: active

Task: Input Oc1ccc(N=Nc2nccs2)c(O)c1
Output: inactive

* * *

System: SF-268 CNS
Experiment: NCI-60 one-dose screen, 48 h
Conditions: 10 µM unless noted
About 83,000 compounds went through this panel and 20% of them were active in at least one assay; those are over-represented in the sample as a whole. The source made the active and inactive calls. The calls were made as follows: active = growth percent below 10; inactive = the rest.
Classes to choose from: active, inactive

Task: For C#C[C@]1(O)CC[C@H]2[C@@H]3CC=C4c5nc(Nc6ccccc6[N+](=O)[O-])sc5CC[C@]4(C)[C@H]3CC[C@@]21C , which call appears in the assay record?
Output: inactive

Task: Check Cc1ccccc1-n1nnc(C(=O)Nc2nc3ccc(F)cc3s2)c1C too.
Output: inactive

Task: Try this molecule next: O=C1NC(=O)C(Cc2ccccc2)(Cc2ccccc2)N1
Output: inactive

Task: Cool, now COc1ccc(C2CC(c3ccc4ccccc4c3)=NN2c2nc(O)c(C3=c4cc(OC)ccc4=NC3=O)s2)cc1 (centres undefined)
Output: active

Task: Another: C=C(C)[C@@H]1CC[C@]2(C)[C@H](CC[C@@H]3[C@@H]([C@@](C)(O)CCC=C(C)C)CC[C@]32C)[C@@]1(C)CCC(=O)N1CCN(C)CC1
Output: active

Task: Follow-up item: CCOC(=O)c1nn(C2CCCCO2)c2ccc(NC(=O)Cn3nnc4ccccc43)cc12 (centres undefined)
Output: inactive

Task: Repeat with COc1ccc(/C=C(/C2=NCCN2)n2ccc3ccccc32)cc1
Output: inactive

Task: Here is the next molecule: Nc1ccc(NC(=O)c2ccccc2)c2c1C(=O)c1ccccc1C2=O
Output: inactive

Task: Same question for CC[C@]1(O)CC2CN(CCc3c([nH]c4ccccc34)[C@@](C(=O)OC)(c3cc4c(cc3OC)N(C=O)[C@H]3[C@@](O)(C(=O)OC)[C@H](OC(C)=O)[C@]5(CC)C=CCN6CC[C@]43[C@@H]65)C2)C1 (some centres undefined) please.
Output: active
